Listing of entries alongside the reported % contribution to body burden, Liver.
system: rainbow trout (Oncorhynchus mykiss); assay: Contribution of tissues to fish body burden; assay type: in vivo; conditions: mean across fish, Figure 1; Q10, Q14 maximum estimates

- Mol: "CCCCCCCCCCCCCCCCN"
  Tgt: "rainbow trout (Oncorhynchus mykiss)"
  % contribution to body burden, Liver (%): 12
- Mol: "CCCCCCCCCN"
  Tgt: "rainbow trout (Oncorhynchus mykiss)"
  % contribution to body burden, Liver (%): 14
- Mol: "CCCCCCCCCCCCCN(C)C"
  Tgt: "rainbow trout (Oncorhynchus mykiss)"
  % contribution to body burden, Liver (%): 10
- Mol: "CCCCCCCCCN(C)C"
  Tgt: "rainbow trout (Oncorhynchus mykiss)"
  % contribution to body burden, Liver (%): 13
- Mol: "CCCCCCCCCCCCN"
  Tgt: "rainbow trout (Oncorhynchus mykiss)"
  % contribution to body burden, Liver (%): 19

---

Let's look at some compounds and their measured Contribution of Skin to the fish's body burden.
system: rainbow trout (Oncorhynchus mykiss); test: Contribution of tissues to fish body burden; format: in vivo; conditions: fraction, Fish #1
Measure Name: Contribution of Skin to the fish's body burden

- Mol: "CCCCCCCCCCCCCN"
  Observed Value: 0.17
- Mol: "CCCCCCCCCCCCN"
  Observed Value: 0.14
- Mol: "CCCCCCCCCN"
  Observed Value: 0.07
